All values here come from PubChem BioAssay.

molecular target: NADPH oxidase 2 (Homo sapiens); assay: compounds shifting NOX2 Amplex Red fluorescence – cell-based, HEK293-NOX2, PMA-stimulated, NOX inhibitor project, primary screen (AID 1159); details: 45 min, higher = more signal, called active from +8 up or from −8 down; further: test concentration not given here
Give z-score for every item shown.
One number for each entry.

molecule | systemUnderTest | z-score
O=C(O)[C@H](Cc1ccccc1)n1cc(-c2ccccc2)nn1 | NADPH oxidase 2 (Homo sapiens) | -1.58

Could you tell me z-score for each of these molecules? They are listed below.
1. CC(C)[C@@H](C(=O)O)n1cc(C2(O)CCCCC2)nn1
2. C#CCN1[C@H](/C=C/C2CC2)[C@H](Cc2ccccc2)OC(=O)[C@@H]1Cc1ccccc1
3. COCC(=C=CC[C@H](O)c1ccccc1OCCO)CCO
4. CC(=O)Nc1cc(Br)ccc1C(=O)NCc1ccccc1

A:
1: -1.09; 2: -0.263; 3: 0.281; 4: -0.714

Record z-score for all entries; do not skip any.
1. CCCCN1CC=CC23O[C@@H]4/C=C\CCCOC(=O)C4[C@H]2C(=O)N(CCCO)[C@@H]3C1=O (some centres not stated)
2. C=CCC(OC(C)=O)[C@@H]1[C@@H](N(Cc2cc3ccccc3o2)C(=O)Cc2ccc(OC)cc2)c2cc(OCCCO)ccc2N1C(=O)c1ccc2ccccc2c1 (some centres not stated)
3. [N-]=[N+]=Nc1ccccc1C[C@@]1(C(=O)N2CCCCC2)N=C(c2ccc(OCCCO)cc2)O[C@@H]1c1ccccc1N=[N+]=[N-]
4. C=CCC(OC(C)=O)[C@@H]1[C@@H](N(Cc2ccc(-c3ccccc3)cc2)C(=O)Cc2ccc(F)cc2)c2cc(OCCCO)ccc2N1C(=O)c1ccc2ccccc2c1 (some centres not stated)

A:
[1.59, -1.16, 0.0863, 0.719]

I'm hoping you can list z-score for every molecule here, please.
1. COC(=O)C(CC#Cc1ccc2c(c1)[C@]1(C(=O)N2)[C@H](c2ccccc2OCCO)N2[C@H](c3ccccc3)[C@H](c3ccccc3)OC(=O)[C@H]2[C@@H]1C(=O)O)C(=O)OC
2. COCCCNC(=O)[C@]1(Cc2ccccc2)N=C(c2ccc(OCCCO)cc2)O[C@@H]1c1ccccc1CN=[N+]=[N-]
3. C=CC[C@]1(C(=O)N2CCOCC2)N=C(c2ccc(OCCCO)cc2)O[C@H]1c1ccccc1N=[N+]=[N-]
4. C=C(CCCC)/C(=C/C[C@H](OC(C)=O)c1ccccc1OCCO)c1cnc2ccccc2c1
5. C=C(C(=O)CC[C@H](OC(C)=O)c1ccccc1OCCO)C(C)C
6. COCCCNC(=O)[C@@H]1c2ccccc2C(=O)N(Cc2ccccc2)[C@H]1c1ccc(CO)cc1

A:
1.79
-0.158
-1.82
-1.41
-5.71
-0.694

Hi! Can you tell me z-score for each of these molecules?
1. O=C1C2C=CC(C(O)c3c(F)cccc3Cl)N(Nc3ccccc3F)C2C(=O)N1c1ccccc1 (configuration not stated)
2. CC(=O)n1cc(C(O)C2C=CC3C(=O)NC(=O)C3N2Nc2ccccn2)c2ccccc21 (configuration not stated)

A:
[-1.43, -1.68]

* * *

tested on: Human papillomavirus type 1a protein E7 (residues 44-93); assay: small molecules binding HPV E7 44-93 – biochemical, small-molecule microarray, residues 44-93, 635 nm fluorescence, primary screen (AID 1108); conditions: fluorescence 635 nm, higher = more signal;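 further: E7 fragment applied at 1 µg/mL in TBST for 1 h at 4 C; score combines spot fluorescence with its signal to noise ratio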
Rule: composite z-score of 0.9 or more gives MET; anything lower gives NOT MET.

Previously resolved entries follow.
compound | label
COC(=O)C(CC#Cc1ccc2c(c1)[C@]1(C(=O)N2)[C@H](c2ccccc2OCCO)N2[C@H](c3ccccc3)[C@H](c3ccccc3)OC(=O)[C@H]2[C@@H]1C(N)=O)C(=O)OC | NOT MET
CC(C)Cc1ccc(CN2CC[C@@H](N)C2)cc1 | NOT MET
CCCC=C(CCC)[C@@H](NC(=O)OCC(C)C)c1ccccc1 | NOT MET
COCC(=C=CC[C@@H](O)c1ccc(OCCO)cc1)C[C@@H](O)c1ccccn1 | NOT MET
CC(C)OC(=O)C=C1C[C@@H](c2cccc(Cl)c2)O[C@@H](c2cccc(Cl)c2)O1 | NOT MET

Q: Confirm if composite z-score reported for the compound COCCOC(=O)N1C(=O)[C@@]2(c3cc(C#CC4=CCCCC4)ccc31)[C@H](C(N)=O)[C@H]1C(=O)O[C@H](c3ccccc3)[C@H](c3ccccc3)N1[C@@H]2c1ccc(O)cc1 is 0.9 or above.
A: MET

Q: # bool: composite z-score of C#CCN1[C@H](/C=C/C2CC2)[C@H](Cc2ccccc2)OC(=O)[C@@H]1Cc1ccccc1 >= 0.9
A: NOT MET

Q: Does the compound O=C1O[C@@H](c2ccccc2)[C@@H](c2ccccc2)N2[C@@H](c3ccccc3OCCO)[C@]3(C(=O)Nc4ccc(C#CC5(O)CCCCCC5)cc43)[C@@H](C(=O)N3CCN(c4ncccn4)CC3)[C@H]12 have recorded composite z-score that is 0.9 or more?
A: MET

Q: I'd appreciate it if you could say whether CC[C@@H]1C=C(C(=O)O)[C@H](c2cccc3ccccc23)N1S(=O)(=O)c1ccc(C)cc1 has composite z-score at least equal to 0.9.
A: NOT MET

Q: Does C=CCN1C(=O)[C@]2(Cc3ccccc3)N=C(c3ccc(OCCCO)cc3)O[C@@H]2c2ccccc21 have a reported composite z-score of at least 0.9?
A: MET

Q: API: above_or_equal(metric=composite z-score, cutoff=0.9) for item COC(=O)C[C@H]1O[C@@H](CCc2ccccc2)[C@@H](C)[C@@H]1[Si](C)(C)c1ccc(OC)cc1
A: NOT MET

* * *

experiment: probe aInhba binding on compound microarray – biochemical, small-molecule microarray, 635/667 nm fluorescence, primary screen (AID 1148); conditions: higher = more signal;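 further: score merges 667nm spot fluorescence with signal-to-noise for antibody binding to printed compounds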
quantityKind: composite z-score
Answers are plain numbers.

Past entries and their recorded results:
molecule | recordedResult
[N-]=[N+]=NCc1ccccc1[C@@H]1OC(c2ccc(OCCCO)cc2)=N[C@]1(CCS(=O)(=O)c1ccccc1)C(=O)N1CCCCC1 | 0.531
[N-]=[N+]=NCc1ccccc1[C@H]1OC(c2ccc(OCCCO)cc2)=N[C@@]1(Cc1ccccc1)C(=O)N1CCCCC1 | 0.204
C=CC[C@]12N=C(c3ccc(OCCCO)cc3)O[C@H]1c1ccccc1N(CCS(=O)(=O)c1ccccc1)C2=O | -0.101
COc1ccc([Si](C)(C)[C@@H]2[C@@H](CCn3cc([C@H](O)c4ccccc4)nn3)O[C@]3(C(=O)N(Cc4cccc(N5CCC5=O)c4)c4ccccc43)[C@H]2C)cc1 | -0.0477
CC(c1ccccc1)C(O)C1C=CC2C(=O)N(C)C(=O)C2N1NC(=O)OC(C)(C)C (stereo not given) | 0.19
[N-]=[N+]=NCc1ccccc1C[C@@]1(C(=O)NCC(O)CO)N=C(c2ccc(OCCCO)cc2)O[C@@H]1c1ccccc1 (stereo not given in full) | 0.0377
CC(=O)n1cc(C(O)C2C=CC3C(=O)NC(=O)C3N2Nc2ccccn2)c2ccccc21 (stereo not given) | 0.23
O=C(O)[C@H](Cc1ccccc1)n1cc(-c2ccccc2)nn1 | -0.0494

# return composite z-score for each item in the list
1. COC(=O)C[C@H]1O[C@@H](CCc2ccccc2)[C@@H](C)[C@@H]1[Si](C)(C)c1ccc(OC)cc1
2. O=C1C2C=CC(C(O)c3cc(C(F)(F)F)cc(C(F)(F)F)c3)N(Nc3ccccc3)C2C(=O)N1c1ccccc1 (stereo not given)
3. COC(=O)[C@@]1(Cc2ccc(OC)cc2)[C@H]2c3cc(C(=O)N4CCCC4)n(CCc4ccc(O)c(O)c4)c3C[C@H]2CN1C(=O)c1ccccc1
4. CO[C@H]1O[C@H](CO)[C@@H](OC(=O)Nc2ccccc2-c2ccccc2)[C@H](OC(=O)Nc2ccccc2-c2ccccc2)[C@@H]1OC(=O)Nc1ccccc1-c1ccccc1
5. COCCOC(=O)N1C(=O)[C@@]2(c3cc(C#CC4=CCCCC4)ccc31)[C@H](c1ccc(OCCO)cc1)N1[C@H](c3ccccc3)[C@H](c3ccccc3)OC(=O)[C@H]1[C@@H]2C(=O)N1CCc2cc(OC)c(OC)cc2C1
6. CC(C)N1CC=CC23O[C@@H]4C=CCOC(=O)[C@@H]4[C@H]2C(=O)N(CCCCCO)[C@@H]3C1=O (stereo not given in full)
7. NCCCCCCNC(=O)[C@H]1C[C@H]2C(=O)N[C@@H](Cc3ccccc3)C(=O)N2[C@H]1c1cccc(OCCO)c1

A:
-0.0963
-0.0136
0.147
0.173
0.346
-0.152
-0.128

* * *

target: Neurogenic locus notch homolog protein 2 (Homo sapiens); assay: small molecules binding Notch2 protein – biochemical, small-molecule microarray, 635 nm fluorescence, stem cell growth factors, primary screen (AID 1073); settings: higher = more signal
quantityKind: composite z-score
One number for each entry.

Please review the following examples before continuing.
compound | quantityKind | recordedResult
COCCCNC(=O)[C@@]1(CCS(=O)(=O)c2ccccc2)N=C(c2ccc(OCCCO)cc2)O[C@H]1c1ccccc1N=[N+]=[N-] | composite z-score | 1.48
CC(=CC1CCCCC1)[C@@H](NC(=O)c1cccnc1)c1ccc(-c2ccccc2)cc1 | composite z-score | 0.142
C=CC1c2cc(O)c(OC)cc2CCN1Cc1cccc(OC(F)(F)F)c1 (stereo not drawn) | composite z-score | -0.137
Cc1c(NC(=O)/C(C#N)=C/c2cccc([N+](=O)[O-])c2)c(=O)n(-c2ccccc2)n1C | composite z-score | 1.01

Batch request: composite z-score per item, same order as input.
1. C=C(/C(=C/C[C@H](OC(C)=O)c1ccc(OCCO)cc1)c1cc(C(=O)OC)ccc1OC)C(C)C
2. C[N+](C)(C)CCCC[C@@H]1NC(=O)[C@@H]2C[C@H](C(=O)NCCCCCCNC(=O)CS)[C@H](c3ccc(O)cc3)N2C1=O
3. COC(=O)[C@@]1(Cc2ccc(OC)cc2)[C@H]2c3cc(C(=O)N4CCCC4)n(CCSCCO)c3C[C@H]2CN1C(=O)c1ccccc1
4. O=C1[C@H]2C=C(Br)[C@H](C[C@@H]2OCCCCCCO)[C@@]12CO2

A:
1: 0.219; 2: -1.41; 3: 1.69; 4: -0.565
